Acetylcholinesterase (Electrophorus electricus, UniProt O42275): recorded pIC50 for assorted compounds
Sequence (O42275 whole entry): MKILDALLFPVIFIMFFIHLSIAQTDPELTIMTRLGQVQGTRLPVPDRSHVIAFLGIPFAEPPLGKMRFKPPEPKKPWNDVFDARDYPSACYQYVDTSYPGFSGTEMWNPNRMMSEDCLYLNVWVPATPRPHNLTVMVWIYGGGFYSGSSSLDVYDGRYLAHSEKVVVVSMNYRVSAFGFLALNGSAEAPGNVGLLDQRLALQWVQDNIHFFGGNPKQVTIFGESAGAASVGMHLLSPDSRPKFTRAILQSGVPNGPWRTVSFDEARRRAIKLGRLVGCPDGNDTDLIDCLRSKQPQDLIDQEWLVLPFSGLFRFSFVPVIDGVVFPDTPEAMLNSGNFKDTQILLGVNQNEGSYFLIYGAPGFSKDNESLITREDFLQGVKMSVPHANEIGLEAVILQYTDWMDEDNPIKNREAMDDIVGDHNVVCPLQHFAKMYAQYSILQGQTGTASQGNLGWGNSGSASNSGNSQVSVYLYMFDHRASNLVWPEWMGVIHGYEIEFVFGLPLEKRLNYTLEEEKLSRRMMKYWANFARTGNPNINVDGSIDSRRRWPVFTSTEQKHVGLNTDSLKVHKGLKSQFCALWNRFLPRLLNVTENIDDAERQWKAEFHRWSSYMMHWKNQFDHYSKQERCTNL
pIC50: −log10 of the molar value.

{"smilesStr": "Cc1cccc(Nc2ccccc2C(=O)NCCCCCCCNc2c3c(nc4cc(Cl)ccc24)CCCC3)c1C", "pIC50": 5.86}
{"smilesStr": "NCCCCCCCCCNc1c2c(nc3cc(Cl)ccc13)CCCC2", "pIC50": 9.22}
{"smilesStr": "CCCCCCCNc1c2c(nc3cc(Cl)ccc13)CCCC2", "pIC50": 7.80}
{"smilesStr": "Cc1cccc(Nc2ccccc2C(=O)NCCCCCCCCCNc2c3c(nc4cc(Cl)ccc24)CCCC3)c1C", "pIC50": 8.16}
{"smilesStr": "Cc1cccc(Nc2ccccc2C(=O)NCCCCCC(=O)NCCCCNc2c3c(nc4cc(Cl)ccc24)CCCC3)c1C", "pIC50": 7.43}
{"smilesStr": "Cc1cccc(Nc2ccccc2C(=O)NCCCCCCCCNc2c3c(nc4cc(Cl)ccc24)CCCC3)c1C", "pIC50": 9.31}
{"smilesStr": "NCCCCCCCNc1c2c(nc3cc(Cl)ccc13)CCCC2", "pIC50": 8.27}
{"smilesStr": "CCCCCCCCCCNc1c2c(nc3cc(Cl)ccc13)CCCC2", "pIC50": 8.29}
{"smilesStr": "Cc1cccc(Nc2ccccc2C(=O)NCCC(=O)NCCCCCCCNc2c3c(nc4cc(Cl)ccc24)CCCC3)c1C", "pIC50": 8.18}
{"smilesStr": "NCCCCCCCCCCCCNc1c2c(nc3cc(Cl)ccc13)CCCC2", "pIC50": 9.19}
